The reported measurements were obtained from patent US9725449B2.

molecular target: BRD4 (Homo sapiens); experiment: Time resolved fluorescence resonance energy transfer (TR-FRET) binding assay, bromodomain BRD4; settings: FRET BRD4 IC50 (nM), one of the FRET assays described
The molecules listed here are annotated with their IC50.

>  <Molecule>
[2H]C([2H])([2H])c1nnn(C)c1-c1cnc2c3ccc(N4C5CCC4CC(O)C5)nc3n([C@H](c3ccccc3)C3CCOCC3)c2c1 (some centres unmarked) [Example 183]

>  <System Name>
BRD4 (Homo sapiens)

>  <IC50>
< 10 nM

$$$$
>  <Molecule>
[2H]C([2H])([2H])c1nnn(C)c1-c1cnc2c3ccc(N4C5CCCC4CC5)nc3n([C@H](c3ccccc3)C3CCOCC3)c2c1 [Example 184]

>  <System Name>
BRD4 (Homo sapiens)

>  <IC50>
< 10 nM

$$$$
